binding signal reference
target system: GST-ANAC019 NAC domain (Arabidopsis thaliana, UniProt Q9C932 14-162)
Sequence: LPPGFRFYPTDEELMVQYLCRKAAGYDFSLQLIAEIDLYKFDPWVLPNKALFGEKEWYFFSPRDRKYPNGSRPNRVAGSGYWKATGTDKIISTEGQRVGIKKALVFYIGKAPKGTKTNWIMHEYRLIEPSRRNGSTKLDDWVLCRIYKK
assay info: universal protein binding microarray (PBM); high values mean tight binding
protocol conditions: protein: recombinant; tags: GST; chain copies: 2; dsDNA, one strand shown
// return numeric value only (unit: E-score, not printed)

Below are worked cases with known answers.
CCTTTCCC; 0.0681
AATTCCGT; 0.456
CTTGACCA; 0.0734
CTTGCGTC; 0.0715
ACGTCACT; 0.365
CGTTGACC; 0.0797

Query string: Give its binding signal value. Item: AAGTCTTC
Result string: 0.052

Query string: Give its binding signal value. Item: AGTCAAAA
Result string: 0.0721

Query string: Give its binding signal value. Item: CGTACGCA
Result string: 0.359

Query string: Give its binding signal value. Item: CACGACAC
Result string: 0.41

Query string: Give its binding signal value. Item: GCGTTGAC
Result string: 0.0691

Query string: Give its binding signal value. Item: GACGCAAA
Result string: 0.0555

Query string: Give its binding signal value. Item: ACGTAAGT
Result string: 0.418

Query string: Give its binding signal value. Item: ACGTAAAA
Result string: 0.336

Query string: Give its binding signal value. Item: AGTCTACG
Result string: 0.0568

Query string: Give its binding signal value. Item: ACGAGAAA
Result string: 0.324

Query string: Give its binding signal value. Item: CACACGCC
Result string: 0.207

Query string: Give its binding signal value. Item: GGTCAACC
Result string: 0.0527

Query string: Give its binding signal value. Item: GTAAGAAA
Result string: 0.224

Query string: Give its binding signal value. Item: GGGGAAAC
Result string: 0.152

Query string: Give its binding signal value. Item: GGAGGGAA
Result string: 0.104

Query string: Give its binding signal value. Item: GCACGGAA
Result string: 0.472

Query string: Give its binding signal value. Item: CACGGCAC
Result string: 0.484

Query string: Give its binding signal value. Item: GAAAGGAA
Result string: 0.134

Query string: Give its binding signal value. Item: ACGCAACG
Result string: 0.327

Query string: Give its binding signal value. Item: ACACGTAA
Result string: 0.477

Query string: Give its binding signal value. Item: GCCGTGTA
Result string: 0.44

Query string: Give its binding signal value. Item: ACGCAATC
Result string: 0.285

* * *

target system: GST-ANAC092(1-285) full length (Arabidopsis thaliana, UniProt Q9FKA0 1-285)
Sequence: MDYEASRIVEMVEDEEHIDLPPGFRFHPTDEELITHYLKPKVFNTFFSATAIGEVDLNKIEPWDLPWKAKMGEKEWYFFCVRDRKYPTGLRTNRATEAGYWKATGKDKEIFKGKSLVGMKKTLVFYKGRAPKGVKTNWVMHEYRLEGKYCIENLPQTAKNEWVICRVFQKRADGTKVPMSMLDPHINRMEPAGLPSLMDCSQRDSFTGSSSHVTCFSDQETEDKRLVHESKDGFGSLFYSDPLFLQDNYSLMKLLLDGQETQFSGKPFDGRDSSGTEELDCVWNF
assay info: universal protein binding microarray (PBM); high values mean tight binding
protocol conditions: protein: recombinant; tags: GST; chain copies: 2; dsDNA, one strand shown
Consider the cut-off 0.4 E-score. If the recorded binding signal is strictly smaller, the label is Y; if not, the label is N.

ACAGTCAA; Y
AACGTAGA; Y
CTAAGTAA; Y
GGTCAAGA; Y
ATGGCGTG; N

Query string: Answer whether the sequence ATACACGC has binding signal strictly less than 0.4 E-score
Result string: N

* * *

target system: GST-NTL6(1-168) (Arabidopsis thaliana, UniProt Q9SCK6 1-168)
Sequence (Q9SCK6 1-168): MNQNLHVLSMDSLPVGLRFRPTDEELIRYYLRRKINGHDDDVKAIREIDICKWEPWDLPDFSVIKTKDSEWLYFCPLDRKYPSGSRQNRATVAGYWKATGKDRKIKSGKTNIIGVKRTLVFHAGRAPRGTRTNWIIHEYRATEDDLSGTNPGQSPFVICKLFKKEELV
assay info: universal protein binding microarray (PBM); high values mean tight binding
protocol conditions: protein: recombinant; tags: GST; chain copies: 2; dsDNA, one strand shown
So basically, the class depends on measured binding signal, and the ranges are class 1 (below 0.1 E-score), class 2 (0.1 E-score to below 0.2 E-score), class 3 (0.2 E-score or more)

Query string: State the band of CCACGCAA
Result string: class 2

Query string: State the band of GGAAGTAA
Result string: class 3

Query string: State the band of GCGTAAAA
Result string: class 1

Query string: State the band of GTTAAGCA
Result string: class 3

Query string: State the band of CACACGCA
Result string: class 1

Query string: State the band of CTTAAGTA
Result string: class 3

* * *

target system: GST-ANAC019 NAC domain (Arabidopsis thaliana, UniProt Q9C932 14-162)
Sequence: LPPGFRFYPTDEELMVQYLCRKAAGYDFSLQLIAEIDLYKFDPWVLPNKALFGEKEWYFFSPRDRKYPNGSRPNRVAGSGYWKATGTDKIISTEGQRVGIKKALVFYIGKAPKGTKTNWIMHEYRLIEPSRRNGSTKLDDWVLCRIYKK
assay info: universal protein binding microarray (PBM); high values mean tight binding
protocol conditions: protein: recombinant; tags: GST; chain copies: 2; dsDNA, one strand shown
observable: binding signal (E-score)
// return numeric value only (unit: E-score, not printed)

Query string: Item: CACGTTAA Test system: GST-ANAC019 NAC domain (Arabidopsis thaliana, UniProt Q9C932 14-162) Read-out: binding signal Value: ?
Result string: 0.125

Query string: Item: CTTACCCC Test system: GST-ANAC019 NAC domain (Arabidopsis thaliana, UniProt Q9C932 14-162) Read-out: binding signal Value: ?
Result string: 0.132

Query string: Item: ACGGAAGC Test system: GST-ANAC019 NAC domain (Arabidopsis thaliana, UniProt Q9C932 14-162) Read-out: binding signal Value: ?
Result string: 0.436

Query string: Item: CCCTTGAC Test system: GST-ANAC019 NAC domain (Arabidopsis thaliana, UniProt Q9C932 14-162) Read-out: binding signal Value: ?
Result string: 0.0511

Query string: Item: GTACGTAA Test system: GST-ANAC019 NAC domain (Arabidopsis thaliana, UniProt Q9C932 14-162) Read-out: binding signal Value: ?
Result string: 0.463

Query string: Item: CTAGGAAA Test system: GST-ANAC019 NAC domain (Arabidopsis thaliana, UniProt Q9C932 14-162) Read-out: binding signal Value: ?
Result string: 0.18

Query string: Item: ACGTACGC Test system: GST-ANAC019 NAC domain (Arabidopsis thaliana, UniProt Q9C932 14-162) Read-out: binding signal Value: ?
Result string: 0.202

Query string: Item: GAAGGGAA Test system: GST-ANAC019 NAC domain (Arabidopsis thaliana, UniProt Q9C932 14-162) Read-out: binding signal Value: ?
Result string: 0.101

Query string: Item: ACGTGTAC Test system: GST-ANAC019 NAC domain (Arabidopsis thaliana, UniProt Q9C932 14-162) Read-out: binding signal Value: ?
Result string: 0.309

Query string: Item: GCGTGTAA Test system: GST-ANAC019 NAC domain (Arabidopsis thaliana, UniProt Q9C932 14-162) Read-out: binding signal Value: ?
Result string: 0.297

Query string: Item: ACGCCACG Test system: GST-ANAC019 NAC domain (Arabidopsis thaliana, UniProt Q9C932 14-162) Read-out: binding signal Value: ?
Result string: 0.147

Query string: Item: CAGTTGAC Test system: GST-ANAC019 NAC domain (Arabidopsis thaliana, UniProt Q9C932 14-162) Read-out: binding signal Value: ?
Result string: 0.135

Query string: Item: ACGTCTCT Test system: GST-ANAC019 NAC domain (Arabidopsis thaliana, UniProt Q9C932 14-162) Read-out: binding signal Value: ?
Result string: 0.451

* * *

target system: GST-ANAC055(1-171) (Arabidopsis thaliana, UniProt Q9LDY8 1-171)
Sequence: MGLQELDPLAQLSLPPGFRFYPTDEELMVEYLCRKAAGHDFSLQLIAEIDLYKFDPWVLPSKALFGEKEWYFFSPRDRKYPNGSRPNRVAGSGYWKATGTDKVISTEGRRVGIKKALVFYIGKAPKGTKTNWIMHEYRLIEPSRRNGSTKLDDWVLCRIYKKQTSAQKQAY
assay info: universal protein binding microarray (PBM); transcription factors of Arabidopsis thaliana; high values mean tight binding
protocol conditions: protein: recombinant; tags: GST; chain copies: 2; dsDNA, one strand shown
Param threshold (0.2 E-score) applies to binding signal; output rule met when value >= threshold, rule not met when value < threshold.

Field: example entries. Status: answers known.
ACACGGAA; rule met
ATTAAGTA; rule not met
ACGCTACT; rule met
GTAAGTCA; rule met
GAACACGC; rule met
ATTGCTTC; rule not met

// switching to the query sequence
Query string: Say whether AGACACGC shows binding signal of 0.2 E-score or more.
Result string: rule not met
